System: LOX IMVI melanoma
Experiment: NCI-60 one-dose screen, 48 h
Settings: 10 µM unless noted
Compounds without any hit were thinned out: in the full panel of roughly 83,000, 20% have a hit. Active and inactive are the calls of the source. How the source made its calls: active means growth percent below 10; inactive means the rest.
Outcome codes: active, inactive

compound	label
CCOC(=O)N1CC1	inactive
CCCCCCCC[n+]1ccc2ccccc2c1	inactive
COc1ccc(/C=C\c2cc(OC)c(OC)c(OC)c2)cc1NC(=O)/C=C/c1ccc(OC)c(OC)c1	inactive
CCC(=O)Nc1ccc(Cl)c(Cl)c1	inactive
CC1=C(CCCOC(=O)[C@H](N)CC(C)C)C2=C(C)C3(CC3)[C@@](C)(O)C(=O)C2=C1	inactive
CCOC(=O)C(Cc1ccc(N(CCCl)CCCl)cc1)NC(=O)C(CC(C)C)NC(C)=O (configuration not stated)	active
C[C@]12CC[C@H]3[C@@H](CC4SC(N)=NC45C/C(=N/NC(N)=O)CC[C@]35C)[C@@H]1CCC2=O (some centres not stated)	active
O=C([O][Hg][CH2]C1OCCOC1[CH2][Hg][O]C(=O)c1ccccc1)c1ccccc1 (configuration not stated)	active
COc1ccc(N(CC(=O)NCCC[Te]c2ccccc2)C(=O)CNC(=O)OC(C)(C)C)cc1	inactive
O=C(O)C1C(C(=O)O)C2(Cl)C(Cl)=C(Cl)C1(Cl)C2(Cl)Cl.[Hg] (configuration not stated)	inactive
Cc1ccc(N2COOC3(OOC2)C2CC4CC(C2)CC3C4)cc1	active
COC(=O)[C@H](Cc1ccccc1)NC(=O)c1csc([C@@H](C[C@H](C(C)C)N(C)C(=O)[C@@H](NC(=O)[C@H]2CCCCN2C)C2CC2)OC(C)=O)n1	inactive

====

Tested on: CCRF-CEM leukemia
Experiment: NCI-60 one-dose screen, 48 h
Conditions: 10 µM unless noted
About 83,000 compounds went through this panel and 20% of them were active in at least one assay; those are over-represented in the sample as a whole. The source made the active and inactive calls. How the source made its calls: active means growth percent below 10; inactive means the rest.
Possible outcomes: T for active, F for inactive

compound	label
C=CCCCN=C=S	F
COc1cc(C=Nc2cccc(Br)c2)ccc1N(CCCl)CCCl	F
CCOC(=O)[C@@H](C)C[C@H](Cc1ccccc1)NC(=O)c1csc([C@@H](C[C@H](C(C)C)N(C)C(=O)[C@H](CCC(C)C)NC(=O)[C@H]2CCCCN2C)OC(C)=O)n1	T
O=C(Nc1ccc([N+](=O)[O-])cc1)C(Cl)(Cl)Cl	F
N#CC1(c2ccccc2)CCN(Cc2ccccc2)CC1	F
Fc1c[c-]c(-c2ccccn2)c(F)c1.[CH3-].[Pt+2].c1ccc([PH+](c2ccccc2)c2ccccn2)cc1	T
COc1cc([C@@H]2c3cc4c(cc3[C@H](OC(C)=O)[C@H]3COC(=O)[C@@H]23)OCO4)cc(OC)c1OC	F
CN[C@@]1(c2ccccc2Cl)CCCC[C@@H]1NCC1CCCO1 (stereo partly drawn)	F
C1CCC([PH+](C2CCCCC2)C2CCCCC2[PH+](C2CCCCC2)C2CCCCC2)CC1.O=C(C1[CH-]CCCC1)C1CCCC[N-]1.[Au] (stereo not drawn)	T
COc1ccc(C(O)(C(=O)O)c2ccc(OC)cc2)cc1	F
CC(=O)OC[C@]1(C)C=C2C(=O)[C@](C)(O)C3(CC3)C(C)=C2[C@H]1OC(=O)N(C)CCN(C)C(=O)OC(C)(C)C	F
Nc1ccc(-c2nc3cc(F)ccc3[se]2)cc1F	F
CC(C)COC(C[N+](=O)[O-])C(Cl)(Cl)Cl (stereo not drawn)	F
C1CCC([PH+](C2CCCCC2)C2CCCCC2[PH+](C2CCCCC2)C2CCCCC2)CC1.[Au].[CH-]1CCCCC1CC1CCCC[N-]1 (stereo not drawn)	T
C=C1C(=O)O[C@H]2[C@H]1CC/C(COC(=O)C(=O)c1cn(Cc3ccccc3)c3ccccc13)=C\CC[C@@]1(C)O[C@@H]21	T
CCCCCCCCCCCCNC(c1ccccc1)C(O)c1ccccc1 (stereo not drawn)	F
COc1cc(/C=C/[N+](=O)[O-])c([N+](=O)[O-])cc1OC	T
C/C(=C\c1ccn(-c2ccc(N)c(F)c2)n1)[C@@H]1C[C@@H]2O[C@]2(C)CCC[C@H](C)[C@H](O)[C@@H](C)C(=O)C(C)(C)[C@@H](O)CC(=O)O1	F
Cn1cc(C=O)c2nccnc21	F
CNC(=O)Oc1cccc(C(F)(F)F)c1	F
CCOC(=O)[C@@H](C)C[C@H](Cc1ccccc1)NC(=O)c1csc([C@@H](C[C@H](C(C)C)N(C)C(=O)[C@@H](NC(=O)[C@H]2CCCCN2C)C(C)(C)CC)OC(C)=O)n1	T
C[C@@]12CC=C3c4nc(Nc5cccc(O)c5)sc4CC[C@]3(C)[C@H]1CC[C@]1(C)C(=O)CC[C@@H]21	F
Clc1ccc(CSC(Cn2ccnc2)c2ccc(Cl)cc2Cl)cc1 (stereo not drawn)	F
CCOP(=O)(Cc1ccc(C#N)cc1)OCC	F
CN[C@]1(c2ccccc2Cl)CCCC[C@H]1NCCCN1CCN(C)CC1	F
Oc1c(CCl)cc(Cl)cc1CCl	F
Cc1cc(N(CCCl)CCCl)ccc1C=Nc1cccnc1	F
COC(=O)C12CC(NC(=O)c3csc([C@@H](C[C@H](C(C)C)N(C)C(=O)[C@@H](NC(=O)[C@H]4CCCCN4C)C(C)C)OC(C)=O)n3)(C1)C2	T
O=C(N/N=C/c1ccc(N(CCCl)CCCl)cc1)c1cccc2ccccc12	F
c1cnc2[nH]cc(-c3csc(-c4cn(CCCCN5CCCCC5)c5ccccc45)n3)c2c1	F
Cc1c2cc(Cl)c3ccccc3c2c[n+]2ccccc12	F
CN1CCC(O)(c2ccc(F)cc2)C(C(=O)c2ccc(F)cc2)C1 (stereo not drawn)	F
CC1=C([Te]c2ccc(O)cc2)C(=O)c2ccccc2C1=O	T
